molecular target: Aryl hydrocarbon receptor (Homo sapiens) (UniProt P35869); test: ATG_Ahr_CIS: Attagene CIS-FACTORIAL HepG2 Assay for human Aryl Hydrocarbon Receptor (Ahr) (AID 2282930); details: HepG2 AhR cis-factorial reporter transcription; actives raise or lower the signal
Sequence (P35869 whole entry, looked up): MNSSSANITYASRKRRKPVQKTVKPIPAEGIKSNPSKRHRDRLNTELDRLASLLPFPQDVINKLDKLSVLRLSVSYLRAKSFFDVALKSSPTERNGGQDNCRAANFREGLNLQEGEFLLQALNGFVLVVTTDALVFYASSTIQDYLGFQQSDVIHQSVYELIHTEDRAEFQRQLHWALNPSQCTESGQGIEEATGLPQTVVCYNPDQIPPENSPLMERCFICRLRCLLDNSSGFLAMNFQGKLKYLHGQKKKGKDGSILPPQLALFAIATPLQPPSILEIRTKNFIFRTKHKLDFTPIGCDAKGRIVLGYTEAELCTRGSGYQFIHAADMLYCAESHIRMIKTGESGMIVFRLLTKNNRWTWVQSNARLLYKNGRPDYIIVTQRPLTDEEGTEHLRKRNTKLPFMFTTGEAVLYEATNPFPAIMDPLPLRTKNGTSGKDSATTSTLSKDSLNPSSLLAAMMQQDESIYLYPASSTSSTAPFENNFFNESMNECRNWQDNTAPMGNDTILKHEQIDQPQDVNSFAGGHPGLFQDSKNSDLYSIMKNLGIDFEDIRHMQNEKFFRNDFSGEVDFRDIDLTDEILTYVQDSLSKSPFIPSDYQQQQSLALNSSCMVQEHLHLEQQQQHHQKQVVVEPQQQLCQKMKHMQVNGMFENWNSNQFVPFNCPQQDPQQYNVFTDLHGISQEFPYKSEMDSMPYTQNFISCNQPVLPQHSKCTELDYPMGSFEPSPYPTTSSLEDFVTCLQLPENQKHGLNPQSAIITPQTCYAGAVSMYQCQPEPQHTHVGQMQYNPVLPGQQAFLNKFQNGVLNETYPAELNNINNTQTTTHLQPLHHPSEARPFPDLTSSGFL
The source made the active and inactive calls. The calls were made as follows: active = hit-call score of the fitted dose curve at least 0.9, where 1 is the maximum; inactive = score below 0.9.
Select the matching outcome among class 1 (active), class 0 (inactive)

The following compounds have reported results that may help.
>>> cat("CCCCCCCCN(C)CCCCCCCC")
"class 0"
>>> cat("COc1cc(C(=O)NC2CCN(C)CC2)ccc1Nc1ncc2c(n1)N(C1CCCC1)CC(F)(F)C(=O)N2C")
"class 0"
>>> cat("Cc1occc1C(=O)Nc1ccc(C(=O)N2CCC(F)(F)/C(=C\\C(=O)N3CCC(N4CCCCC4)CC3)c3ccccc32)cc1")
"class 1"

Prompt: Give the logged outcome of this assay for the following compound: Cc1ccc(C(C)C)cc1
Completion: class 0

Prompt: Give the logged outcome of this assay for the following compound: Clc1ccccc1C(c1ccccc1)(c1ccccc1)n1ccnc1
Completion: class 1

###

read-out: Thrombomodulin, THBD (gene 7056); assay: BSK_3C_Thrombomodulin: BioMAP Diversity Plus: 3C Assay for Thrombomodulin Biomarker Activity (AID 2283029); conditions: primary human endothelial cells (HUVEC); actives raise or lower the signal
Active and inactive are the calls of the source. How the source made its calls: active means hit-call score of the fitted dose curve at least 0.9, where 1 is the maximum; inactive means score below 0.9.
reported-property: AC50

>>> result("CCCCCCCC[Si](OCC)(OCC)OCC")
"21 µM (active)"
>>> result("Oc1ccccc1")
"inactive"
>>> result("CCCCCCCCCCCO")
"inactive"
>>> result("COc1cccc([C@H](O)C2CCN(CCc3ccc(F)cc3)CC2)c1OC")
"inactive"
>>> result("Cc1cccc2ccccc12")
"inactive"

Shift focus to the following entry.
The recorded AC50 for entry COc1ccc2cc(S(=O)(=O)N[C@H](CC(=O)N[C@H](Cc3ccc(CN4[C@H](C)CCC[C@@H]4C)cc3)C(=O)N(C)C(C)C)c3ccc4c(c3)OCO4)ccc2c1 equals inactive

###

experiment: ATG_ERE_CIS: Attagene CIS-FACTORIAL HepG2 Assay for Estrogen Response Element (ERE) (AID 2282940); conditions: HepG2 ERE cis-reporter, Attagene RNA transcript; actives raise or lower the signal
Active and inactive are the calls of the source. How the source made its calls: active means hit-call score of the fitted dose curve at least 0.9, where 1 is the maximum; inactive means score below 0.9.
Select the matching outcome among class 1 for active, class 0 for inactive

The following compounds have reported results that may help.
>>> cat("CN(C[C@@H](CC[N+]12CCC(C3CCCCC3)(CC1)CC2)c1ccc(Cl)c(Cl)c1)C(=O)c1cc(C(F)(F)F)cc(C(F)(F)F)c1")
"class 0"
>>> cat("c1ccc(C[n+]2cccc3ccccc32)cc1")
"class 1"
>>> cat("O=C(O)Cn1c(=O)n(Cc2ccc(Br)cc2F)c(=O)c2ccc(Cl)cc21")
"class 0"

Prompt: Give the logged outcome of this assay for the following compound: OCCO
Completion: class 0

Prompt: Give the logged outcome of this assay for the following compound: CC(C)(C)c1csc(-c2cc3cc(OCc4ccccc4CC(=O)O)ccc3o2)n1
Completion: class 0

Prompt: Give the logged outcome of this assay for the following compound: Cc1ccc(C(C)C)cc1
Completion: class 0

###

read-out: Interleukin-1 alpha (IL1a), IL1A (gene 3552); assay: BSK_BE3C_IL1a: BioMAP Diversity Plus: BE3C Assay for Interleukin-1 alpha (IL1a) Biomarker Activity (AID 2283016); details: primary human bronchial epithelial cells; actives raise or lower the signal
The source made the active and inactive calls. How the source made its calls: active means hit-call score of the fitted dose curve at least 0.9, where 1 is the maximum; inactive means score below 0.9.
Select the matching outcome among active, inactive

>>> cat("O=C(O)Cn1c(=O)n(Cc2ccc(Br)cc2F)c(=O)c2ccc(Cl)cc21")
"inactive"
>>> cat("Cc1occc1C(=O)Nc1ccc(C(=O)N2CCC(F)(F)/C(=C\\C(=O)N3CCC(N4CCCCC4)CC3)c3ccccc32)cc1")
"inactive"
>>> cat("Clc1cc(Cl)c2c(c1)N=C1CCCCCN1C2")
"inactive"

Prompt: Give the logged outcome of this assay for the following compound: CCCCCCCCOC(=O)c1cc(O)c(O)c(O)c1
Completion: active

Prompt: Give the logged outcome of this assay for the following compound: CCN(Cc1cccc(S(=O)(=O)O)c1)c1ccc(C(=C2C=CC(=[N+](CC)Cc3cccc(S(=O)(=O)O)c3)C=C2)c2ccccc2S(=O)(=O)[O-])cc1
Completion: inactive

Prompt: Give the logged outcome of this assay for the following compound: CC(C)(O)c1ccc(CNC(=O)c2cccnc2Oc2ccc3nonc3c2)cc1
Completion: inactive

Prompt: Give the logged outcome of this assay for the following compound: CC(C)(C)c1csc(-c2cc3cc(OCc4ccccc4CC(=O)O)ccc3o2)n1
Completion: active

Prompt: Give the logged outcome of this assay for the following compound: CC/C(=C(/CC)c1ccc(O)cc1)c1ccc(O)cc1
Completion: active

Prompt: Give the logged outcome of this assay for the following compound: Clc1ccccc1C(c1ccccc1)(c1ccccc1)n1ccnc1
Completion: active

Prompt: Give the logged outcome of this assay for the following compound: COCC(C)OCC(C)OCC(C)O (centres undefined)
Completion: inactive

Prompt: Give the logged outcome of this assay for the following compound: CCCCCCCCCCCC[N+](C)(C)C
Completion: active

Prompt: Give the logged outcome of this assay for the following compound: c1ccc(C[n+]2cccc3ccccc32)cc1
Completion: inactive

Prompt: Give the logged outcome of this assay for the following compound: COc1cc(C(=O)NC2CCN(C)CC2)ccc1Nc1ncc2c(n1)N(C1CCCC1)CC(F)(F)C(=O)N2C
Completion: active

Prompt: Give the logged outcome of this assay for the following compound: Cc1cn([C@H]2C[C@H](N=[N+]=[N-])[C@@H](CO)O2)c(=O)[nH]c1=O
Completion: inactive

Prompt: Give the logged outcome of this assay for the following compound: O=C(O)c1ccccc1C(=O)OCc1ccccc1
Completion: inactive

Prompt: Give the logged outcome of this assay for the following compound: CCCC(=O)OCCC(C)C
Completion: inactive

Prompt: Give the logged outcome of this assay for the following compound: Cc1ncc(CO)c(CO)c1O
Completion: inactive
